B1: tRNA (parent)
chain: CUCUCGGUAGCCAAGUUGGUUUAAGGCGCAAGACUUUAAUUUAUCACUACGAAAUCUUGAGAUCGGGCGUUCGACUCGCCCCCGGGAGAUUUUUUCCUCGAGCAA

variants of: B1; assay: nonsense suppression (GFP-seq) (ratio to wild type); higher = more function; SUP4oc tRNA, yeast GFP reporter sort-seq
This sample holds only a part of the variants without activity.
endpoint: nonsense suppression

Worked cases, nonsense suppression given:
[
  {
    "sequence_text": "CUCUCGGUAGCCAAGUUGGUUUCAGGCGCAAGACUUUAAUUUAUCACUACGAAAUCUGGAGAUGGGGCGUUCGACUCGCCCCCGGGAGAUUUUUUCCUCGAGCAA [A23C U58G C64G]",
    "endpoint": "nonsense suppression",
    "result": "≤ 0.026"
  },
  {
    "sequence_text": "CUCUCGGUAGCCAACUUGGUUUAAGGCGCAAGACUUUAAUUUAUCACUACGAAAUCUUGAGAUCAGGCGUUCGACUCGCCCCCGGGAGAUUUUUUCCUCGAGCAA [G15C G65A]",
    "endpoint": "nonsense suppression",
    "result": "≤ 0.026"
  },
  {
    "sequence_text": "CUCUCGGUAGCCAAGUUGGUUUAAGGCGCAAGACUUUAAUUUAUCACUACGAAAUCUUGAGCUUGGGCGUUCGACUCGCCCCCCGGAGAUUUUUUCCUCGAGCAA [A62C C64U G84C]",
    "endpoint": "nonsense suppression",
    "result": "≤ 0.026"
  },
  {
    "sequence_text": "CGCUCGGUAGCCAAGUUGUUUUAAGGCGCAUGACUUUAAUUUAUCACUACGAAAUCUUGAGAUCGGGCGUUCGACUCGCCCCAAGGAGAUUUUUUCCUCGAGCAA [U2G G19U A31U C83A G84A]",
    "endpoint": "nonsense suppression",
    "result": "≤ 0.026"
  },
  {
    "sequence_text": "CUCUCGGCAGCCAAGUUUGUUAAAGGCGCAAGACGUUAAUUUAUCACUACGAAAUCUUGAGAUCGGGCGUACGACUCGCGCCCGGGAGAUUUUUUCCUCGAGCAA [U8C G18U U22A U35G U71A C80G]",
    "endpoint": "nonsense suppression",
    "result": "≤ 0.026"
  },
  {
    "sequence_text": "CUCUCGGUAGUCAAGUUGGUUUAAGGCGCAAGACUUUAAUUUAUCACUACGAAAUCUUGAGAUCGGGCGUUCGACUCGCCCCCGGGAGCUUUUUUCCUCGAGCAA [C11U A89C]",
    "endpoint": "nonsense suppression",
    "result": "≤ 0.026"
  },
  {
    "sequence_text": "CUCUCGGUAGCCAAGUUGGUUUAAGGCGCAAGACUUUAAUUUAUCACUACGAAAUCUUGAGAUCGGGCGUUCGACUCGCCCCCGAGACAUUUUUUCCUCGAGCAA [G85A G88C]",
    "endpoint": "nonsense suppression",
    "result": "≤ 0.026"
  },
  {
    "sequence_text": "CUCUCGGUUGCCAAGUUGGUUUAAGGCGCAAGACUUUAAUUUAUCACUACGAAAACUUGAGAUCGGGCGUUCGACUCGCCCCCGGGAGAUUUUUUCCUCGAGCAA [A9U U55A]",
    "endpoint": "nonsense suppression",
    "result": "≤ 0.026"
  },
  {
    "sequence_text": "CUCUCGGUAGCCAAUUUGGUUUGAGGCGCAAGACUUUAAUUUAUCACUACGAAAGCUUGAGAUCGGGCGUUCGACUCGCCCCCGGGAGAUUUUUUCCUCGAGCAA [G15U A23G U55G]",
    "endpoint": "nonsense suppression",
    "result": "≤ 0.026"
  },
  {
    "sequence_text": "CUCUCGGUAGCCAAGUUGGCUUAAGGCGCAAGACUUUAAUUUAUCACUACGAAAUCUUGAGAUCGGGCGUUCGACUCGCCCCCGGGAUAUUUUUUCCUCGAGCAA [U20C G88U]",
    "endpoint": "nonsense suppression",
    "result": "≤ 0.026"
  }
]

Ask: Using the record for CUCUUGGUAGCCAAGUUGGUUUAAGGCGCAAGACUUUAAUUUAUCACUACGAAAUCUUGAGUUCGGGCCUUCGACUCGCCCCCGGGUGAUUUUUUCCUCGAGCAA [C5U A62U G69C A87U] , report its nonsense suppression.
Reply: ≤ 0.026
